targetEntity: hTSLP-His (human, UniProt Q969D9 29-159, limits assumed)
assay: cell-based or functional assay
resultType: IC50 [pM], STAT5 phosphorylation inhibition in MUTZ5 cells (pM)
# number only, unit pM dropped from output

# count of solved cases: 2
binder | observedResult
BDG38.139 (antibody, V domains shown, IgG1) VH: QMQLVESGGGVVQPGRSLRLSCAASGFAFRTYGMHWVRQAPGKGLEWVAVIWDDGSNTHYADSVKGRFTITRDNSKNTLNLQMNSLRAEDTAVYYCVRAPQWYLSAEAFDLWGQGTMVTVSS VL: SYVLTQPPSVSVAPGETATITCGGNMIGAYLVHWYQQKPGQAPLLVIYDDVDRPARIPERFSGSNSGNTATLTISRVEAGDEADYYCQVWDHNSDHMVFGGGTKLTVL | 89
BDG38.110 (antibody, V domains shown, IgG1) VH: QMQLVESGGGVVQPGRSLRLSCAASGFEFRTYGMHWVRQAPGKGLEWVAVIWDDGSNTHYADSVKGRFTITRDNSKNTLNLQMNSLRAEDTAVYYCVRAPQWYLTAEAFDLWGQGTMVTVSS VL: SYILTQPPSVSVAPGETTRITCGGNLIGAKLVHWYQQKPGQAPVLVIYDDSDRPSRIPERFSGSNIGNTATLTIEDVEAGDEADYYCQVWDYSSNHMVFGGGTKLTVL | 0.295

Now examine the next entry.
# IC50 [pM], STAT5 phosphorylation inhibition in MUTZ5 cells of BDG38.118 (antibody, V domains shown, IgG1) VH: QMQLVESGGGVVQPGRSLRLSCAASGFEFRTYGMHWVRQAPGKGLEWVGVIWYDGSATHYADSVKGRFTITRDNSKNTLNLQMNSLRVEDTAVYYCVRAPQWYLTAEAFDLWGQGTMVTVSS VL: SYILTQPPSVSVAPGETATITCGGNLIGARLVHWYQQKPGQAPVLVIYDDSDRPSRIPERFSGSNIGNTATLTISDVEEGDEADYYCQVWDYSSDHYVFGGGTKLTVL = 0.688
